Measured FACS signal, listed per entry.
system under test: T1, human CLDN6, endogenously expressed on cancer cell lines (human, UniProt P56747 1-220)
T1 construct: also called Endogenous CLDN6+; CLDN6 on ARK2, OVCA429, UMUC4 cells
T1 sequence: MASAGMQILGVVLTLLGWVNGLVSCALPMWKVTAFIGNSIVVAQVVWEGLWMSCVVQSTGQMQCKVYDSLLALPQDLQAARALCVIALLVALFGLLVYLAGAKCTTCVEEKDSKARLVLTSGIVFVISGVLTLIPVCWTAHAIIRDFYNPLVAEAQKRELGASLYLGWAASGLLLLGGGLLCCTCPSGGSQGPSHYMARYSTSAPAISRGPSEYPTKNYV
assay name: FACS, ARK2 cells, 1.5 ug Ab
measured metric: FACS signal

* AB9-3 (antibody, V domains shown, Humanized; also called humanized AB 9-3) VH: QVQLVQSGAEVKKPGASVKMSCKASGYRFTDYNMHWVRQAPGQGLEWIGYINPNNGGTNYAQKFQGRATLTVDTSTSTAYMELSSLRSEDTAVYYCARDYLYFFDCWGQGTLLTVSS VL: DIQMTQSPSSLSASVGDRVTITCLASQTIGTWLAWYQQKPGKAPKLLIYAAASLADGVPSRFSGSGSGTDFTFTISSLQPEDFVTYYCQQLYSIPRTFGQGTKLEIK | 1470
* AB1-7 (antibody, V domains shown, Humanized; also called humanized AB 1-7) VH: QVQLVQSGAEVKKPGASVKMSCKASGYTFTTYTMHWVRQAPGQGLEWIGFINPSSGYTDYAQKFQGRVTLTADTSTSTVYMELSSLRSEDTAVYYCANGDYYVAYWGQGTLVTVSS VL: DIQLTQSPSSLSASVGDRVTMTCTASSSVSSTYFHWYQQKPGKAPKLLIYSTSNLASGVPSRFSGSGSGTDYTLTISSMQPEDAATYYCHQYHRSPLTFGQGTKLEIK | 11200
* AB1-3 (antibody, V domains shown, Humanized; also called humanized AB 1-3) VH: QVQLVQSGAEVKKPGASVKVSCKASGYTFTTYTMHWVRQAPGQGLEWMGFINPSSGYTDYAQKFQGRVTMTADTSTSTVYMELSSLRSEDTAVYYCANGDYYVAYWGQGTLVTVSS VL: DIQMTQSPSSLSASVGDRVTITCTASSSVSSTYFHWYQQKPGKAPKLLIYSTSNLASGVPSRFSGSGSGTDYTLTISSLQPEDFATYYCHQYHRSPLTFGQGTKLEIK | 10800
